B1: SNX8 (parent)
chain: LHQETQLIHVYLPLTSHILRAFVN

Variants of: B1
test-name: protein stability index of a GFP-peptide fusion (GPS, HEK-293T) (PSI 1-6); higher = more stable;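 further: lentivirally expressed fusions sorted by FACS into six bins by GFP to DsRed ratio, PSI derived from sequencing read proportions per bin multiplied by bin number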
experimental-conditions: c terminus: a fixed tail appended
assay-metric: protein stability index

variant-description: P13A
assay-metric: protein stability index
assay-value: 3.59
//
variant-description: V10G
assay-metric: protein stability index
assay-value: 1.51
//
variant-description: P13L
assay-metric: protein stability index
assay-value: 3.99
//
variant-description: Q3R
assay-metric: protein stability index
assay-value: 2.48
//
variant-description: L14V
assay-metric: protein stability index
assay-value: 3.59
//
variant-description: A21T
assay-metric: protein stability index
assay-value: 1.84
//
variant-description: L19D
assay-metric: protein stability index
assay-value: 1.52
//
variant-description: Q6V
assay-metric: protein stability index
assay-value: 3.73
//
variant-description: L14N
assay-metric: protein stability index
assay-value: 4.27
//
variant-description: L12F
assay-metric: protein stability index
assay-value: 2.58
//
variant-description: R20H
assay-metric: protein stability index
assay-value: 2.95
//
variant-description: L7C
assay-metric: protein stability index
assay-value: 2.44
//
variant-description: I18M
assay-metric: protein stability index
assay-value: 1.88
//
variant-description: H2Y
assay-metric: protein stability index
assay-value: 2.96
//
variant-description: F22S
assay-metric: protein stability index
assay-value: 2.14
//
variant-description: T15P
assay-metric: protein stability index
assay-value: 2.3
//
variant-description: R20D
assay-metric: protein stability index
assay-value: 1.93
//
variant-description: Q3I
assay-metric: protein stability index
assay-value: 3.42
//
variant-description: L19A
assay-metric: protein stability index
assay-value: 2.99
//
variant-description: L7N
assay-metric: protein stability index
assay-value: 2.1
//
variant-description: Q3V
assay-metric: protein stability index
assay-value: 2.47
//
variant-description: T15Q
assay-metric: protein stability index
assay-value: 1.75
